- System: P12-Ichikawa
- test.description: cell viability relative to DMSO control; higher = less cytotoxic
- stated.conditions: HPLM + 10% dialyzed FBS; 48 h; 0.000781 µM
cell viability listing for selected compounds.
Write it as a number; the unit % goes unstated.

Solved cases (4 shown):
O=C(Nc1cccc2c(=O)cc(-c3nnn[nH]3)oc12)c1ccc(OCCCCc2ccccc2)cc1; 86.7
O=C(/C=C/c1cccnc1)NCCCCC1CCN(C(=O)c2ccccc2)CC1; 103
CCCCCCCN(CC)CCCC(O)c1ccc(NS(C)(=O)=O)cc1.CCCCCCCN(CC)CCCC(O)c1ccc(NS(C)(=O)=O)cc1.O=C(O)/C=C/C(=O)O (stereo not given); 111
CC/C(=C(\c1ccccc1)c1ccc(OCCN(C)C)cc1)c1ccccc1; 102

Okay, now this compound:
Given item Cc1n[nH]c(C)c1Cc1sc2c(c1C(=O)N1C[C@H](O)CO1)c(=O)n(C)c(=O)n2CC(C)C , the value recorded as its cell viability is 116

###

- System: SEM cells
- test.description: cell viability relative to DMSO control; higher = less cytotoxic
- stated.conditions: RPMI 5 mM glucose + 10% dialyzed FBS; 48 h; 0.00234 µM
property.name: cell viability

O=C(O)c1nn(Cc2ccc(Cl)cc2Cl)c2ccccc12; 89.9%
CN(C)c1ccccc1CN1CCCN(Cc2ccccc2N(C)C)C1c1ccncc1; 79.7%
CC(C)C[C@@H](C(=O)N[C@H](C(=O)OC1CCCC1)c1ccccc1)[C@H](O)C(=O)NO; 113%
Cc1ccc(C(N)=O)cc1Nc1nccc(-c2cn(C(C)C)c3cnccc23)n1; 128%
Cc1ccc([S+](=O)([O-])NC(=O)NN2CC3CCCC3C2)cc1 (stereo not drawn); 98.7%

So, NC(=O)c1c(OCc2c(F)cc(Br)cc2F)nsc1NC(=O)NCCCCN1CCCC1 ? Its cell viability was 130%

Record CC(=O)O[C@@]12CO[C@@H]1C[C@H](O)[C@]3(C)[C@@H]2[C@H](OC(=O)C4=CC=CC=C4)[C@]5(O)C[C@H](O)/C(=C(/[C@@H](O)C3=O)C5(C)C)C . Reported cell viability: 99.6%

Measured cell viability of C[C@@H](Oc1ccc2[nH]nc(/C=C/c3cnn(CCO)c3)c2c1)c1c(Cl)cncc1Cl : 84.6%

###

- Test system: NOMO1
- test.description: cell viability relative to DMSO control; higher = less cytotoxic
- stated.conditions: RPMI 5 mM glucose + 10% dialyzed FBS; 48 h; 0.00234 µM
property.name: cell viability
The answer should read as a number with its unit following.

COC(=O)Nc1nc2cc(Sc3ccccc3)ccc2[nH]1; 111%

What the record says about CC1(C)NC(=O)N(c2ccc([N+](=O)[O-])c(C(F)(F)F)c2)C1=O : cell viability is 87.7%

Kindly note the recorded cell viability for N[C@@H](Cc1cc(I)c(Oc2cc(I)c(O)c(I)c2)c(I)c1)C(=O)O , which is 116%

Field cell viability (entry COC1=CC=CC(=C1/C2=N/CC3=C(N=C(NC4=CC(=C(C=C4)C(O)=O)OC)N=C3)C5=CC=C(Cl)C=C25)F ) reads 77.5%

Sample Clc1ccc(C(Cn2ccnc2)OCc2ccc(Sc3ccccc3)cc2)c(Cl)c1 (centres undefined) ; cell viability observed: 123%

Just so you know, measured cell viability for O=C(O)c1nn(Cc2ccc(Cl)cc2Cl)c2ccccc12 came out at 89.7%

The compound CC(=O)[C@H]1CC[C@H]2[C@@H]3C/C=C4/C[C@@H](O)CC[C@]4(C)[C@H]3CC[C@]12C showed cell viability equal to 118%

Please fill in: cell viability reported for C=C1C(=O)O[C@@H]2[C@H]3O[C@]3(C)CC/C=C(\C)CC[C@@H]12 = 103%

Sure, the documented cell viability for CN1C(=O)\C(=C/C2=C1N=C(NC3CCOCC3)N=C2)OC4=C(F)C=C(F)C=C4 is 97.1%

###

- Test system: P12-Ichikawa
- test.description: cell viability relative to DMSO control; higher = less cytotoxic
- stated.conditions: HPLM + 10% dialyzed FBS; 48 h; 0.00234 µM
Recorded cell viability values for a group of molecules are listed next.

Example molecules with recorded cell viability:
CN1\C(=C(O)/C2=C(C=C(Cl)S2)[S+]1([O-])=O)C(=O)NC3=NC=CC=C3; 123%
COC1=CC=CC(=C1/C2=N/CC3=C(N=C(NC4=CC(=C(C=C4)C(O)=O)OC)N=C3)C5=CC=C(Cl)C=C25)F; 87.8%
COc1cc2nc(N3CCN(C(=O)c4ccco4)CC3)nc(N)c2cc1OC; 91.4%
O=C(N[C@H]1CN2CCC1CC2)c1ccc(Cl)cc1; 107%
CC1(C)NC(=O)N(c2ccc([N+](=O)[O-])c(C(F)(F)F)c2)C1=O; 87.3%

Summary for this molecule, COC(=O)Nc1nc2cc(Sc3ccccc3)ccc2[nH]1 : cell viability is 115%

In plain terms, COc1c(C)c2c(c(O)c1C/C=C(\C)CCC(=O)OCCN1CCOCC1)C(=O)OC2 has a documented cell viability of 114%

Given item O=C(O)C(=O)Nc1cccc(-c2nnn[nH]2)c1 , the value recorded as its cell viability is 94.9%

###

- System: P12-Ichikawa
- test.description: cell viability relative to DMSO control; higher = less cytotoxic
- stated.conditions: HPLM + 10% dialyzed FBS; 48 h; 0.0632 µM
property.name: cell viability (%)
Your answer is read as %, so omit the unit and give the number.

# annotated cases, reported cell viability shown
N#C[C@@H]1C[C@@H]2C[C@@H]2N1C(=O)[C@@H](N)C12CC3CC(CC(O)(C3)C1)C2; 122
C[C@@H](Oc1ccc2[nH]nc(/C=C/c3cnn(CCO)c3)c2c1)c1c(Cl)cncc1Cl; 94.2

Just so you know, measured cell viability for Cc1cccc(Nc2nc(N[C@@H]3CCCC[C@@H]3N)ncc2C(N)=O)c1 came out at 119

Lookup result for CNCCN(C)Cc1c[nH]nc1-c1ccc(O[C@H]2C[C@H](OCCC3CCOCC3)C2)cc1 ; measured cell viability: 122

Field cell viability (entry COc1cc([C@@H]2c3cc4c(cc3[C@H](O)[C@H]3COC(=O)[C@H]23)OCO4)cc(OC)c1OC ) reads 7

# compound N[S+](=O)([O-])c1cc2c(cc1Cl)NCN[S+]2(=O)[O-] ; its cell viability = 112

Memo: OCCN1CCN(CCCN2c3ccccc3Sc3ccc(C(F)(F)F)cc32)CC1 , reported cell viability: 110

Field cell viability (entry O=C(O)C(=O)Nc1cccc(-c2nnn[nH]2)c1 ) reads 108

Field cell viability (entry NNC(=O)c1ccncc1 ) reads 121

Item: CN1C(=O)C(=C/2N(C(=O)N(C3CC3)C(=O)C2=C1/NC4=CC=C(I)C=C4F)C5=CC=CC(=C5)NC(C)=O)\C | cell viability: 113

Entry CC[P](CC)(CC)=[Au][S][C@@H]1O[C@H](COC(C)=O)[C@@H](OC(C)=O)[C@H](OC(C)=O)[C@H]1OC(C)=O — recorded cell viability = 115

Lookup result for CCCCCCCN(CC)CCCC(O)c1ccc(NS(C)(=O)=O)cc1.CCCCCCCN(CC)CCCC(O)c1ccc(NS(C)(=O)=O)cc1.O=C(O)/C=C/C(=O)O (stereo not drawn) ; measured cell viability: 101

response.value for OC[C@H]1O[C@H](C[C@@H]1O)N2\C=C(\I)C(=O)NC2=O (field: cell viability) = 115

Lab note: COc1ccc(CC2SC(=O)NC2=O)cc1C(=O)NCc1ccc(C(F)(F)F)cc1 (stereo not drawn) gave cell viability of 88.3

cell viability in this record for CN(C)Cc1cccc(N/C(=C2\C(=O)Nc3cc(C(=O)N(C)C)ccc32)c2ccccc2)c1 : 119

cell viability reported for this compound CC1(C)NC(=O)N(c2ccc([N+](=O)[O-])c(C(F)(F)F)c2)C1=O : 101

Form field cell viability, entry CC(C)N(CCCNC(=O)Nc1ccc(C(C)(C)C)cc1)C[C@H]1O[C@@H](n2cc(Br)c3c(N)ncnc32)[C@H](O)[C@@H]1O : 97

Input COc1c(C)c2c(c(O)c1C/C=C(\C)CCC(=O)OCCN1CCOCC1)C(=O)OC2 . Output cell viability: 124

###

- System: SEM cells
- test.description: cell viability relative to DMSO control; higher = less cytotoxic
- stated.conditions: RPMI 5 mM glucose + 10% dialyzed FBS; 48 h; 5.12 µM
Reported cell viability is given for each of the following compounds.
# number only, unit % dropped from output

Solved entries:
COc1ccccc1OCC(O)CN1CCN(CC(=O)Nc2c(C)cccc2C)CC1 (centres undefined); 132
Cc1n[nH]c2ccc(-c3cncc(OC[C@@H](N)Cc4c[nH]c5ccccc45)c3)cc12; 2.83

For reference, reported cell viability for NC(=O)c1c(OCc2c(F)cc(Br)cc2F)nsc1NC(=O)NCCCCN1CCCC1 stands at 107

Please fill in: cell viability reported for Cc1ccc([S+](=O)([O-])NC(=O)NN2CC3CCCC3C2)cc1 (centres undefined) = 39.3

Lab book: cell viability of CN(C)[C@H]\1[C@@H]2[C@@H](O)[C@H]3\C(=C(O)/[C@]2(O)C(=O)\C(=C1O)C(N)=O)C(=O)C4=C(C=CC=C4O)[C@@]3(C)O noted as 122

Value of measured cell viability for the entry CO[C@H]1C[C@H]2OC[C@@]2(OC(C)=O)[C@H]3[C@H](OC(=O)C4=CC=CC=C4)[C@]5(O)C[C@H](OC(=O)[C@H](O)[C@@H](NC(=O)OC(C)(C)C)C6=CC=CC=C6)/C(=C(/[C@@H](OC)C(=O)[C@]13C)C5(C)C)C : 13.2

Record Clc1ccc(C(Cn2ccnc2)OCc2ccc(Sc3ccccc3)cc2)c(Cl)c1 (centres undefined) . Reported cell viability: 81

The recorded cell viability for CN1C(=O)\C(=C/C2=C1N=C(NC3CCOCC3)N=C2)OC4=C(F)C=C(F)C=C4 is 96.2

compound CNC(=O)c1cc(COc2nnc(Nc3ccc(Cl)cc3)c3ccoc23)ccn1 , cell viability observed: 88.4

// field: cell viability; key: Cc1nc(C(=O)NCC(=O)O)c(O)c2ccc(Oc3ccccc3)cc12 ; value = 103

Value of cell viability reported for the compound CC(C)N(CCCNC(=O)Nc1ccc(C(C)(C)C)cc1)C[C@H]1O[C@@H](n2cc(Br)c3c(N)ncnc32)[C@H](O)[C@@H]1O is 83.5

NNC(=O)c1ccncc1 has a reported cell viability of 101

For this compound ( COC1=C(CC=C(C)C)C2=C(\C=C/C(=O)O2)C=C1 ), measured cell viability is 85

cell viability for O=C(Nc1cccc2c(=O)cc(-c3nnn[nH]3)oc12)c1ccc(OCCCCc2ccccc2)cc1 is 92.8
